conditions: buffer; pH 7.4; 200.0 µM
Catalogue of solubility kinetic values

- COMPOUND: "COCCNC(=O)/C(C#N)=C/c1cccs1"
  CMP: ">"
  solubility kinetic [µg/mL]: 35.4
- COMPOUND: "CC(=O)c1cccc(NC(=O)CO/N=C2/CCCc3nonc32)c1"
  CMP: "="
  solubility kinetic [µg/mL]: 45.7
- COMPOUND: "Cc1ccc(-c2noc(-c3c(C)noc3C)n2)cc1"
  CMP: "<"
  solubility kinetic [µg/mL]: 0.2
- COMPOUND: "O=c1oc2ccccc2nc1/C=C(\\O)c1ccccc1"
  CMP: "="
  solubility kinetic [µg/mL]: 21.4
- COMPOUND: "CCC(C)[C@H](NC(=O)N1CCC(Cc2ccccc2)CC1)C(=O)O (stereo not given in full)"
  CMP: ">"
  solubility kinetic [µg/mL]: 49.9
- COMPOUND: "Cc1ccccc1C(=O)OCC(=O)NCC1COc2ccccc2O1 (stereo not given)"
  CMP: "="
  solubility kinetic [µg/mL]: 40.9
- COMPOUND: "O=C(Nc1ccccn1)C(=O)Nc1ccccn1"
  CMP: "="
  solubility kinetic [µg/mL]: 35.6
- COMPOUND: "Cc1nc(Nc2ccc(Cl)cc2)c(C#N)c(=O)[nH]1"
  CMP: "="
  solubility kinetic [µg/mL]: 9.6
- COMPOUND: "O=C(Nc1ccccc1)Nc1ccc(Cl)nc1Cl"
  CMP: "="
  solubility kinetic [µg/mL]: 3.9
- COMPOUND: "COc1ccc(CCC(=O)Nc2ncc(C)s2)cc1"
  CMP: "="
  solubility kinetic [µg/mL]: 4.1
- COMPOUND: "Cc1csc(NC(=O)c2cc(C)nc3ccccc23)n1"
  CMP: "="
  solubility kinetic [µg/mL]: 30.7
- COMPOUND: "Cc1ccc(CNC(=O)c2cncc(Br)c2)cc1"
  CMP: "="
  solubility kinetic [µg/mL]: 9.6
- COMPOUND: "C=CCC1c2cccc(C(=O)O)c2C(=O)N1c1cccc(OC)c1 (stereo not given)"
  CMP: ">"
  solubility kinetic [µg/mL]: 48.5
- COMPOUND: "CC(=O)c1ccc(-c2ccc(C(=O)NC3CCCCCC3)o2)cc1"
  CMP: "="
  solubility kinetic [µg/mL]: 6.7
- COMPOUND: "Cc1occc1C(=O)Nc1ccc([N+](=O)[O-])cc1Br"
  CMP: "="
  solubility kinetic [µg/mL]: 1.7
- COMPOUND: "CN(CC(=O)N1CCc2ccccc2C1)c1ccccc1"
  CMP: ">"
  solubility kinetic [µg/mL]: 42.1
- COMPOUND: "CCN(c1ccccc1)S(=O)(=O)c1cc(C(=O)NCC(c2ccco2)N2CCCCC2)ccc1C (stereo not given)"
  CMP: "="
  solubility kinetic [µg/mL]: 18.2
- COMPOUND: "COCC(=O)Nc1ccc2c(c1)OCO2"
  CMP: "="
  solubility kinetic [µg/mL]: 27.7
- COMPOUND: "COC(=O)/N=C(/Cc1ccc(OC)cc1)c1ccc(OC)cc1"
  CMP: "="
  solubility kinetic [µg/mL]: 43.6
- COMPOUND: "COC(=O)c1sccc1NC(=O)c1cccs1"
  CMP: "<"
  solubility kinetic [µg/mL]: 0.6
- COMPOUND: "Cc1ccc2[nH]c(C)c(CCNC(=O)NC3CCCCC3)c2c1"
  CMP: "="
  solubility kinetic [µg/mL]: 1
- COMPOUND: "Cc1[nH]c(=S)c(C#N)c(C)c1CCC#N"
  CMP: ">"
  solubility kinetic [µg/mL]: 32.6
- COMPOUND: "Cc1onc(-c2c(Cl)cccc2Cl)c1C(O)c1ccccc1 (stereo not given)"
  CMP: ">"
  solubility kinetic [µg/mL]: 50.1
- COMPOUND: "CN(C)S(=O)(=O)c1cccc(COC(=O)c2cnccn2)c1"
  CMP: "="
  solubility kinetic [µg/mL]: 41.7
- COMPOUND: "COC(=O)c1cc(S(=O)(=O)Nc2ccc(C)cn2)c[nH]1"
  CMP: "="
  solubility kinetic [µg/mL]: 43.9
